molecular target: EGFR wildtype (Homo sapiens); test: Biochemical EGFR kinase assay (Lance Ultra TR-FRET), wildtype; details: Km ATP; read-out: IC50 WT (nM) Km ATP
Sequence (P00533 25-1210): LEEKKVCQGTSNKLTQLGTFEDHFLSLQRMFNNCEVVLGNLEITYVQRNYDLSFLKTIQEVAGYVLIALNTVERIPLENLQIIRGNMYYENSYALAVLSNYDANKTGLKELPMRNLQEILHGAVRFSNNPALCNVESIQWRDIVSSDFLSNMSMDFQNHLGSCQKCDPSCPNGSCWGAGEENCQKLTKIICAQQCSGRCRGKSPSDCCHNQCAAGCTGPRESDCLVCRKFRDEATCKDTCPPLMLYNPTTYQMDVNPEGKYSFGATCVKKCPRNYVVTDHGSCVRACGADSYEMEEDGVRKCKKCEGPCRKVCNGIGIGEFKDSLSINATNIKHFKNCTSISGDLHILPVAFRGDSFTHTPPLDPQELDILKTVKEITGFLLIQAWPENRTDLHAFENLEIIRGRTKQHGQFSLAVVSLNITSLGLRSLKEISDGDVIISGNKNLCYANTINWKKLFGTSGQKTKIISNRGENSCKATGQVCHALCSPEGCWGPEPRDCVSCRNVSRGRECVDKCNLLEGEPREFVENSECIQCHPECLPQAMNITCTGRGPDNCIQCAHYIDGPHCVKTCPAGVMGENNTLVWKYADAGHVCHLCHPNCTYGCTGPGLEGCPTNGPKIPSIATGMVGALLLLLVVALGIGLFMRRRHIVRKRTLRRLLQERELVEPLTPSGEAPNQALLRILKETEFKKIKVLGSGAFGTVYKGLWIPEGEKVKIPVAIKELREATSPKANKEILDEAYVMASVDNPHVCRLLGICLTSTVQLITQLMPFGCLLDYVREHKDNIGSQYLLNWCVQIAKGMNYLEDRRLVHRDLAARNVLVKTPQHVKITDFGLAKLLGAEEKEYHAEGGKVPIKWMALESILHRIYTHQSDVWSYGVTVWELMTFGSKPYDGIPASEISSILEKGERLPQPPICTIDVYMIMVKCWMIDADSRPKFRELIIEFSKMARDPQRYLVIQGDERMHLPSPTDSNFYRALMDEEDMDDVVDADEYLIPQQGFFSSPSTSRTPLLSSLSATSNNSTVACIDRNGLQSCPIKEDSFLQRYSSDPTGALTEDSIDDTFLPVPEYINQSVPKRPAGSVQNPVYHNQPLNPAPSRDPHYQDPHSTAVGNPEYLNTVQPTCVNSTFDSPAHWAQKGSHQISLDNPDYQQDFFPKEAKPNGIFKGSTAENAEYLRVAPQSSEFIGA
endpoint_label: IC50 (nM)

Examples with answers:
FC(F)Cn1cc(-c2nccc(Nc3cc(N[C@H]4CC[C@@H](F)CC4)c(-c4ccc(N5CCOCC5)cn4)cn3)n2)cn1: 272
O=S(=O)(C1CC1)n1cc(-c2nccc(Nc3cc(N[C@H]4CC[C@@H](CO)CC4)c(-c4ccc(CN5CCC(O)CC5)cn4)cn3)n2)cn1: 0.3
Cc1ccnc(-c2cnc(Nc3ccnc(-c4cnn(S(=O)(=O)C5CC5)c4)n3)cc2N[C@H]2CC[C@@](C)(O)CC2)c1: 3.6
O=S(=O)(C1CC1)n1cc(-c2nccc(Nc3cc(N[C@H]4CC[C@@H](CCO)CC4)c(-c4cc(C(F)F)ccn4)cn3)n2)cn1: 7.4

[I] CN(C)C[C@H]1CC[C@@H](Nc2cc(Nc3ccnc(-c4cnn(S(=O)(=O)C5CC5)c4)n3)ncc2-c2ccc(C(C)(C)O)nn2)CC1
[II] O=S(=O)(C1CC1)n1cc(-c2nccc(Nc3cc(N[C@H]4CC[C@H](CCO)CC4)c(-c4cc(C(F)F)ccn4)cn3)n2)cn1
Q) Which record shows the lower IC50: the first, I , or the second, II ? Give the label under which the chosen entry appears.
A) I
(I: 2.7 nM, II: 84.7 nM)

###

molecular target: EGFR L858R/C797S (Homo sapiens, UniProt P00533, C797S/L858R); experiment: Biochemical EGFR kinase assay (Lance Ultra TR-FRET), double mutant L858R/C797S; details: ATP at Km; read-out: IC50 L858R/C797S, Km ATP
Sequence (P00533 25-1210 C797S/L858R): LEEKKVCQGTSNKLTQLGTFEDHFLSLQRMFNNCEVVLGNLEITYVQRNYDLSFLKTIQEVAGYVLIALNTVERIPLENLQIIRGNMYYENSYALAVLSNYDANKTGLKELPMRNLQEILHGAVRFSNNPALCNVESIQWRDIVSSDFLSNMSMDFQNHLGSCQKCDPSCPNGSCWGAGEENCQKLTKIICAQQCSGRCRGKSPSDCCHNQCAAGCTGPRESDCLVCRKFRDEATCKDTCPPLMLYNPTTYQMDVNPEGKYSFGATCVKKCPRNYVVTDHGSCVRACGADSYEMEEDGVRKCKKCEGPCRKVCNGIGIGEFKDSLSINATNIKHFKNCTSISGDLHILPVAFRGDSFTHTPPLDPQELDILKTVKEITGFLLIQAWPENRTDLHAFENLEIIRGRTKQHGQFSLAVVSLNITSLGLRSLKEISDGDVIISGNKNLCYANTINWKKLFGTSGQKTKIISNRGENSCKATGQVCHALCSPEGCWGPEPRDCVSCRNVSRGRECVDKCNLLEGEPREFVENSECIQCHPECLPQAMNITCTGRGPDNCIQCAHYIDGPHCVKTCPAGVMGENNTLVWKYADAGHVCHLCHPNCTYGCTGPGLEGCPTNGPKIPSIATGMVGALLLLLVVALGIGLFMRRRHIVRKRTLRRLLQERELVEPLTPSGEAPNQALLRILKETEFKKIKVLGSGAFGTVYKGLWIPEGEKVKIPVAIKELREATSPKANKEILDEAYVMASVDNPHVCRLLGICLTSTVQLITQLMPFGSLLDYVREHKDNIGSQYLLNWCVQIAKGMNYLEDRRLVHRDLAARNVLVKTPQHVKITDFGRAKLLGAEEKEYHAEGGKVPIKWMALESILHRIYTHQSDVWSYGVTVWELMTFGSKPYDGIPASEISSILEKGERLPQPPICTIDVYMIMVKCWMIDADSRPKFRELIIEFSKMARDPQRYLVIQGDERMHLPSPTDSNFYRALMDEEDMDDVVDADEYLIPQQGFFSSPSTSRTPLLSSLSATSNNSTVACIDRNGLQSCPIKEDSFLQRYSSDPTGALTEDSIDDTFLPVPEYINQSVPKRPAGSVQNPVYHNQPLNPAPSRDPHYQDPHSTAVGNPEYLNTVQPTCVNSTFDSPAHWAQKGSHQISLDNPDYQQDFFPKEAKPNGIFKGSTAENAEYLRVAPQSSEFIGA
endpoint_label: IC50 (nM)

[I] CC(C)(O)c1ccc(-c2cnc(Nc3ccnc(-c4cnn(S(=O)(=O)C5CC5)c4)n3)cc2NC2CCC(F)(F)CC2)nc1
[II] CC(C)(O)[C@H]1CC[C@@H](Nc2cc(Nc3ccnc(-c4cnn(S(=O)(=O)C5CC5)c4)n3)ncc2-c2ccc(S(=O)(=O)N3CCOCC3)cn2)CC1
Q) Param pair: I , II . Output: the one whose IC50 is numerically greater. Refer to your chosen entry by its label in the reply.
A) I
(I: 3.9 nM, II: 2.2 nM)

###

target: EGFR del19/C797S (Homo sapiens, UniProt P00533, C797S/DEL746-750); experiment: Biochemical EGFR kinase assay (Lance Ultra TR-FRET), double mutant del19/C797S; conditions: ATP at Km; read-out: IC50 del19/C797S, Km ATP
Sequence (P00533 with tags, fused parts or gaps DEL746-750/C797S): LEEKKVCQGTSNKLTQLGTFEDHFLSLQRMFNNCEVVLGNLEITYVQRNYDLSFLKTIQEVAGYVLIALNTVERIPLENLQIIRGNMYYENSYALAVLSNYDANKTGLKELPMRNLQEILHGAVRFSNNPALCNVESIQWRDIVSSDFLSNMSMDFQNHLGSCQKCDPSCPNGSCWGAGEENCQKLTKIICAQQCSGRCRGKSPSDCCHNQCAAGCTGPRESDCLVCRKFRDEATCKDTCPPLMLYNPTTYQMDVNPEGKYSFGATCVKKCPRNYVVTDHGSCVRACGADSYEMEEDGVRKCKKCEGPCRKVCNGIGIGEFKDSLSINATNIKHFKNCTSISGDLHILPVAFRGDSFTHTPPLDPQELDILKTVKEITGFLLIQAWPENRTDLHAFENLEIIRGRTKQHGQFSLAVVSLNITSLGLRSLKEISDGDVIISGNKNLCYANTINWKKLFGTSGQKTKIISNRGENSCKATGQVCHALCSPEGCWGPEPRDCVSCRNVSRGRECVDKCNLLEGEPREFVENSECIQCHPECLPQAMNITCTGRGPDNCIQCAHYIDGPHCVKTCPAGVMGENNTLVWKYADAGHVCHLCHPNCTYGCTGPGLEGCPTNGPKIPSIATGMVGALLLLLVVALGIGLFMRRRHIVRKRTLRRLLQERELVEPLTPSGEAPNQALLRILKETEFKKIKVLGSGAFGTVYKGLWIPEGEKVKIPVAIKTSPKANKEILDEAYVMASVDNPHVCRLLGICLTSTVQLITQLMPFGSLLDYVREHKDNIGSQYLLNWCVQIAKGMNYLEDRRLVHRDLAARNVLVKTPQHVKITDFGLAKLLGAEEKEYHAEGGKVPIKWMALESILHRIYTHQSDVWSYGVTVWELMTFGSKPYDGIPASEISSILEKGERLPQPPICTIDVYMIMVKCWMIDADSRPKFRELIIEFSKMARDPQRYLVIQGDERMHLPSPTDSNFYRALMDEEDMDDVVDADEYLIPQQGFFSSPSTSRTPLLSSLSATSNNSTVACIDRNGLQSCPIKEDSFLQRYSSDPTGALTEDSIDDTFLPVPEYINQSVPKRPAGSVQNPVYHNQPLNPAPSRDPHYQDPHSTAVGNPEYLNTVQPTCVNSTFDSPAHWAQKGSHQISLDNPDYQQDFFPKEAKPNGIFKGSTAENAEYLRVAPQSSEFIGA
pIC50: −log10 of the molar value.
endpoint_label: pIC50

[A] CN(C)S(=O)(=O)n1cc(-c2nccc(Nc3cc(NC4CCC(C)(O)CC4)c(-c4ccc(C(C)(O)C(F)(F)F)cn4)cn3)n2)cn1 (stereo not drawn)
[B] O=S(=O)(C1CC1)n1cc(-c2nccc(Nc3cc(N[C@H]4CC[C@@H](CO)CC4)c(-c4cc(NC5CC(F)(F)C5)ccn4)cn3)n2)cn1
Q) // which entry has the larger pIC50 value, A or B ? Indicate which entry you chose by stating its label.
A) B
(B: 8.74, A: 8.54)

[A] CC(C)(F)c1ccc(-c2cnc(Nc3ccnc(-c4cnn(S(=O)(=O)C5CC5)c4)n3)cc2NC2CCC(F)(F)CC2)nc1
[B] C[C@]1(O)CC[C@@H](Nc2cc(Nc3ccnc(-c4cnn(S(=O)(=O)C5CC5)c4)n3)ncc2-c2cccc(F)n2)CC1
[C] CN1CCN(C(=O)c2ccc(-c3cnc(Nc4ccnc(-c5cnn(S(=O)(=O)C6CC6)c5)n4)cc3N[C@H]3CC[C@@H](C(C)(C)O)CC3)nc2)CC1
[D] CC(C)Nc1cc(Nc2ccnc(-c3cnn(S(=O)(=O)C4CC4)c3)n2)ncc1-c1ccc(C(C)(O)C(F)(F)F)cn1 (stereo not drawn)
[E] CN(C)S(=O)(=O)n1cc(-c2nccc(Nc3cc(N[C@H]4CC[C@@](C)(O)CC4)c(-c4ccc(CC(F)(F)F)cn4)cn3)n2)cn1
Q) Ascending by pIC50, please. Quick reminder: the answer is the labels in the order asked.
A) A, D, E, B, C

[1] CN1CCC(Oc2ccc(-c3cnc(Nc4ccnc(-c5cnn(S(=O)(=O)C6CC6)c5)n4)cc3NC3CCC(F)CC3)nc2)CC1 (stereo not drawn)
[2] CN1CCN(S(=O)(=O)c2ccc(-c3cnc(Nc4ccnc(-c5cnn(S(=O)(=O)C6CC6)c5)n4)cc3N[C@H]3CC[C@@H](CO)CC3)nc2)CC1
[3] CN(C)C[C@H]1CC[C@@H](Nc2cc(Nc3ccnc(-c4cnn(S(=O)(=O)C5CC5)c4)n3)ncc2-c2ccc(OC(F)(F)F)cn2)CC1
[4] CN(C)CCOc1ccc(-c2cnc(Nc3ccnc(-c4cnn(S(=O)(=O)C5CC5)c4)n3)cc2N[C@H]2CC[C@@H](C(C)(C)O)CC2)nc1
Q) Rank ascending by pIC50. Ranked list of labels, please, in the requested order.
A) 2, 3, 4, 1
(2: 8.66, 3: 9.00, 4: 9.52, 1: 10.00)

Measured values drawn from patent US12258328B2 for this set.
